Parameter pIC50: see the listing below.
Assay target: Cholinesterase (Equus caballus, UniProt P81908)
Sequence (P81908 whole entry): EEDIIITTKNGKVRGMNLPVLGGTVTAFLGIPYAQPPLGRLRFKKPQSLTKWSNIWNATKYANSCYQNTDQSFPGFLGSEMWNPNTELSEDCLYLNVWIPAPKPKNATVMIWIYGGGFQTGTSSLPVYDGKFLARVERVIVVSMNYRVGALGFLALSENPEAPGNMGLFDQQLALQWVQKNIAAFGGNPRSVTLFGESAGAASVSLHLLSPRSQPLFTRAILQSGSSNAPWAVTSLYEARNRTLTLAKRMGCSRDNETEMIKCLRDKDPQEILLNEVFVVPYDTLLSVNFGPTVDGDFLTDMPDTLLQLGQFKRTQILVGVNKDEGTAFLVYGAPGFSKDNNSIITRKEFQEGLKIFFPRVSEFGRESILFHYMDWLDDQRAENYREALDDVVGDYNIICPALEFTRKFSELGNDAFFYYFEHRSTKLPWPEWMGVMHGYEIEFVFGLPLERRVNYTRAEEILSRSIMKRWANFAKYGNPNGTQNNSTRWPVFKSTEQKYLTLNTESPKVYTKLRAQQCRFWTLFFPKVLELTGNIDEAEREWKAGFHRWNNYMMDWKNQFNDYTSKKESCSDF
Assay comment: Inhibition of BuChE in equine serum using butylthiocholine iodide as substrate by Ellman's method
The meaning of pIC50 here: minus log10 of the concentration in molar units.

Worked cases, pIC50 given:
1. CCN(C)C(=O)Oc1ccc2c(c1)NCC2CCCN.Cl (stereo not drawn): 5.33
2. CCN(C)C(=O)Oc1cccc2c1C(CCN(C)C)CN2.Cl (stereo not drawn): 6.51

[ask] Query pIC50 for `CCN(C)C(=O)Oc1cccc2c1CCN2CCCN(C)C.Cl`
[reply] 6.05
